Target: T1, human soluble urokinase plasminogen activator receptor (hsuPAR) (human, UniProt Q03405 23-303, limits assumed)
T1 construct: also called human suPAR; rhuPAR-His
T1 sequence (Q03405 23-303 limits assumed): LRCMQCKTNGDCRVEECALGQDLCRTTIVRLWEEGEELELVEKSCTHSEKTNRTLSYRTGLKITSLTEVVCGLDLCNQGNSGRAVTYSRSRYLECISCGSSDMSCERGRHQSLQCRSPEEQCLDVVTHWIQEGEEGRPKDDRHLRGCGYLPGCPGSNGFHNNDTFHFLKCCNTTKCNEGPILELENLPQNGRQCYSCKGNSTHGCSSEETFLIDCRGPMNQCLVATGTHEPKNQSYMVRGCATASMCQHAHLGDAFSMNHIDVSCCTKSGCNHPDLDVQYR
Assay: off-rate screen of scFv clones (kdis), Octet BLI
Can you tell me koff for the items I'm about to list?
Please respond with the number in s⁻¹ and leave the unit unwritten.

Value of measured koff for the entry suPAR_DB04_F11 (scFv, V domains shown, scFv clone from phage display) VH: QVQLVQSGAEVKKPGASVKVSCKASGYTFTSHYMHWVRQAPGQGLEWMGWIDHEGGNTSYAQKFQGRVTMTRDTSTSTVYMELSSLRSEDTAVYYCARGYDVDWFVYWGQGTLVTVSS VL: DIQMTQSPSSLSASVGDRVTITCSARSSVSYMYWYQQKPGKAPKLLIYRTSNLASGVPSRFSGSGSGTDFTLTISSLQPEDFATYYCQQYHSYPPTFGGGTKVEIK : 0.0051

Memo: suPAR_DB04_G11 (scFv, V domains shown, scFv clone from phage display) VH: QVQLVQSGAEVKKPGASVKVSCKASGFTFKDYYIHWVRQAPGQGLEWMGWIDPDSGGTNYAQKFQGRVTMTRDTSTSTVYMELSSLRSEDTAVYYCARGYDVDWFVYWGQGTLVTVSS VL: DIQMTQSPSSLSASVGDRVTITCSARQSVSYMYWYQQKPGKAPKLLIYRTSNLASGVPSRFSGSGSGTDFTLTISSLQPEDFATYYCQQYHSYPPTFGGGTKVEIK , reported koff: 0.00327

Reported koff for suPAR_DB04_C09 (scFv, V domains shown, scFv clone from phage display) VH: QVQLVQSGAEVKKPGASVKVSCKASGYTFSTYYMQWVRQAPGQGLEWMGWIDPENGSTIYDQKFQGRVTMTRDTSTSTVYMELSSLRSEDTAVYYCARGYDVDWFVYWGQGTLVTVSS VL: DIQMTQSPSSLSASVGDRVTITCSARSSVSYMYWYQQKPGKAPKLLIYRASNLASGVPSRFSGSGSGTDFTLTISSLQPEDFATYYCQQYHSYPPTFGGGTKVEIK was 0.0013

Entry suPAR_DB04_G05 (scFv, V domains shown, scFv clone from phage display) VH: QVQLVQSGAEVKKPGASVKVSCKASGYNITDYYIHWVRQAPGQGLEWMGWIDPENGSTIYDQKFQGRVTMTRDTSTSTVYMELSSLRSEDTAVYYCARGYDVDWFVYWGQGTLVTVSS VL: DIQMTQSPSSLSASVGDRVTITCSARSSVSYMYWYQQKPGKAPKLLIYRTSNLQSGVPSRFSGSGSGTDFTLTISSLQPEDFATYYCQQYHSYPPTFGGGTKVEIK , koff reported as 0.00364

Origin of measurements: patent US20250215104A1
